The measurements presented in this section are drawn from patent US12617769B2.

Here, each record is paired with measured Tmax data.
# procedureText: Pharmacokinetic determination in SD rats (plasma, LC/MS/MS)
# Type: in vivo
# assaySetup: male, plasma, po; SD rat, ig, 5 mg/kg
outcomeMeasure: Tmax (min)

>>> quantitativereadout("CC(C)c1cc(Oc2c(Cl)cc(-n3nc(C#N)c(=O)[nH]c3=O)cc2Cl)n[nH]c1=O [MGL3196, reference compound]")
120
>>> quantitativereadout("O=c1cnn(-c2cc(Cl)c(Oc3ccc(=O)n(Cc4ccccc4)c3)c(Cl)c2)c(=O)[nH]1")
25
>>> quantitativereadout("COC(=O)c1nn(-c2cc(Cl)c(Oc3ccc(=O)n(Cc4ccccc4)c3)c(Cl)c2)c(=O)[nH]c1=O")
30

---

# tgt: TRα (Homo sapiens, UniProt P10827)
# Construct: Then 5 μL of 4×TRα-LBD or TRP-LBD
# Sequence (P10827 163-410 isoform P10827-2 limits assumed, other chains not shown): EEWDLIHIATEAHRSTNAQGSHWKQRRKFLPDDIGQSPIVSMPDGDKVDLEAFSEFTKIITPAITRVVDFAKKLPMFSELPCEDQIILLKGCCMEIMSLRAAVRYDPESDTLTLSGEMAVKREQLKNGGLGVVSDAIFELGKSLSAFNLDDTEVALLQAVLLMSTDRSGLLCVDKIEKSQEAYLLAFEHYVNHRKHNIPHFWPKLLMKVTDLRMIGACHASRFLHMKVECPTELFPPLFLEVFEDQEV
# procedureText: In vitro binding activity, LanthaScreen TR-FRET Thyroid Receptor alfa Coactivator Assay
# assaySetup: TRα-LBD
pEC50: −log10 of the molar value.
Items are presented alongside their recorded pEC50.
outcomeMeasure: pEC50

>>> quantitativereadout("COC(=O)c1nn(-c2cc(Cl)c(Oc3ccc(=O)n(Cc4ccccc4)c3)c(Cl)c2)c(=O)[nH]c1=O [Example 16]")
4.79
>>> quantitativereadout("N#Cc1nn(-c2cc(Cl)c(Oc3ccc(=O)n(Cc4ccc(F)c(F)c4)c3)c(Cl)c2)c(=O)[nH]c1=O [Example 11]")
6.17
>>> quantitativereadout("N#Cc1nn(-c2cc(Cl)c(Oc3ccc(=O)n(Cc4ccc(F)cc4)c3)c(Cl)c2)c(=O)[nH]c1=O [Example 13]")
6.22
>>> quantitativereadout("N#Cc1nn(-c2cc(Br)c(Oc3ccc(=O)n(Cc4ccccc4)c3)c(Br)c2)c(=O)[nH]c1=O [Example 35]")
6.33
>>> quantitativereadout("CCOC(=O)Cn1cc(Oc2c(Cl)cc(-n3nc(C#N)c(=O)[nH]c3=O)cc2Cl)ccc1=O [Example 17]")
4.81

---

# tgt: TRβ (Homo sapiens)
# Construct: Then 5 μL of 4×TRα-LBD or TRP-LBD
# Sequence (P10828 217-461 limits assumed): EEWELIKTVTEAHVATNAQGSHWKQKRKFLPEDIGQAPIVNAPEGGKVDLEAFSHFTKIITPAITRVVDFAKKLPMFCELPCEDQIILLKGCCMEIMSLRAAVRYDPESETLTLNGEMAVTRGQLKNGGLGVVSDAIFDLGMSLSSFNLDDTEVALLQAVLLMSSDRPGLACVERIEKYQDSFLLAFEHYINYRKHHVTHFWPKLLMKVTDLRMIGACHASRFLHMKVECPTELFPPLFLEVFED
# procedureText: In vitro binding activity, LanthaScreen TR-FRET Thyroid Receptor beta Coactivator Assay
# assaySetup: TRβ-LBD
pEC50: −log10 of the molar value.
Mark rule not met for pEC50 values under 7, and rule met for everything at or above.

>>> category("COc1cccc(Cn2cc(Oc3c(Cl)cc(-n4nc(C#N)c(=O)[nH]c4=O)cc3Cl)ccc2=O)c1")
"rule not met"
>>> category("N#Cc1nn(-c2cc(Cl)c(Oc3ccc(=O)n(Cc4ccc(F)cc4)c3)c(Cl)c2)c(=O)[nH]c1=O")
"rule met"
>>> category("N#Cc1nn(-c2cc(Cl)c(Oc3cnc(=O)n(Cc4ccccc4)c3)c(Cl)c2)c(=O)[nH]c1=O")
"rule not met"
>>> category("Cc1ccc(Cn2cc(Oc3c(Cl)cc(-n4nc(C#N)c(=O)[nH]c4=O)cc3Cl)ccc2=O)cc1")
"rule met"
>>> category("NC(=O)c1nn(-c2cc(Cl)c(Oc3ccc(=O)n(Cc4ccccc4)c3)c(Cl)c2)c(=O)[nH]c1=O")
"rule not met"
>>> category("CCOC(=O)Cn1cc(Oc2c(Cl)cc(-n3nc(C#N)c(=O)[nH]c3=O)cc2Cl)ccc1=O")
"rule not met"

---

# tgt: TRα (Homo sapiens, UniProt P10827)
# Construct: Then 5 μL of 4×TRα-LBD or TRP-LBD; purchased Invitrogen PV4687
# procedureText: In vitro binding activity, LanthaScreen TR-FRET Thyroid Receptor alfa Coactivator Assay
# assaySetup: TRα-LBD
pEC50: −log10 of the molar value.
Consider the following compounds and their measured pEC50 readings.
outcomeMeasure: pEC50

>>> quantitativereadout("Cc1cc(-n2nc(C#N)c(=O)[nH]c2=O)cc(C)c1Oc1ccc(=O)n(Cc2ccccc2)c1")
5.14
>>> quantitativereadout("O=c1[nH]c(=O)n(-c2cc(Cl)c(Oc3ccc(=O)n(Cc4ccccc4)c3)c(Cl)c2)nc1CO")
5.49
>>> quantitativereadout("N#Cc1nn(-c2cc(Cl)c(Oc3ccc(=O)n(Cc4cccc(C(F)(F)F)c4)c3)c(Cl)c2)c(=O)[nH]c1=O")
5.24
>>> quantitativereadout("COc1ccc(Cn2cc(Oc3c(Cl)cc(-n4nc(C#N)c(=O)[nH]c4=O)cc3Cl)ccc2=O)cc1")
5.36
